Data provenance is patent US20260274955A1.

# Lookup of reported Anti-CD28 Fab (SEQ ID NOs: 202, 203) signal keyed by entry
- measuredOn: T1, anti-CD28 Fab (SEQ ID NOs: 202, 203)
- T1 construct: biotinylated and captured on neutravidin coated plates in the phage ELISA
- assayDetails: phage binding ELISA; biotinylated Fab on neutravidin plate;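 further: clonal phage supernatants added to Fab wells pretreated with CD28 antigen or with blocking buffer only, bound phage read out via HRP-linked anti-M13 antibody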
Respond using a number only.

                       binder  reading
0  YCEGHAIEYLAKCL [Phage-409]     1.74
1  YCQGHSAEYMMKCL [Phage-364]     1.81
2  YCEGHLAQYMNKCL [Phage-396]     1.76

Task: // query Anti-CD28 Fab (SEQ ID NOs: 202, 203) signal value for entry YCDGHKPQYMEKCL [Phage-394]
Output: 1.76
